Tested on: OVCAR-8
Experiment: NCI tumour cell line growth inhibition, 48 h
Calls of active or inactive are those of the source. Rule as the data show it: active = GI50 up to about 1.1 µM and inactive = higher.
Mark one answer only. Choices: active, inactive

Qu. GET /call?item= C=C(CN(C)C)C(=O)c1ccc(Oc2ccccc2)cc1 returns the recorded outcome of this test.
Ans. inactive

Qu. GET /call?item= O=[N+]([O-])c1ccc2c(c1)Sc1ccccc1N2 returns the recorded outcome of this test.
Ans. inactive

New cases:
Qu. GET /call?item= COC(=O)C1=C(c2ccc3c(c2)OCO3)O[C@H](c2ccc3c(c2)OCO3)[C@H]1COC(C)=O returns the recorded outcome of this test.
Ans. inactive

Qu. GET /call?item= C[N+](C)(C)CC1CCCC(C[N+](C)(C)C)C1=O (stereo not given) returns the recorded outcome of this test.
Ans. active

src = ChEMBL document CHEMBL1201862
